- Test system: HCT116 cells
- ASSAY_COMMENT: cell viability test, HCT116
- Format: cell-based, human
- CONDITION_DESCRIPTION: Homo sapiens, HCT-116, 48 h, read-out: IC50 (HCT116)
VALUE_TYPE: pIC50
Scale explanation: pIC50 corresponds to minus log10 of a concentration expressed in moles per litre.

Value lookup for pIC50; key = CC1=C(COP(N)(=O)N(CCCl)CCCl)C(=O)c2ccccc2C1=O (stereo not shown)
4.85

====

- TEST_SYSTEM: PKM2 (Homo sapiens)
VALUE_TYPE: Kd

Record CCCN(CCC)P(N)(=O)OCC1=CC(=O)c2ccccc2C1=O (stereo not shown) [Compound 8] : what is its Kd with PKM2 (Homo sapiens)?
~11 µM

====

- System: HCT116 cells
- ASSAY_COMMENT: cell viability test, HCT116
- Type: cell-based, human
- CONDITION_DESCRIPTION: Homo sapiens, HCT-116, 48 h, cell viability, 48 h; read-out: IC50 (HCT116)
pIC50: −log10 of the molar value.
VALUE_TYPE: pIC50

What pIC50 value was documented for this compound, CCCN(CCC)P(N)(=O)OCC1=CC(=O)c2ccccc2C1=O (stereo not shown) ?
~5.30

====

- Tested on: MCF7 cells
- ASSAY_COMMENT: cell viability test, MCF7
- Format: cell-based
- CONDITION_DESCRIPTION: Homo sapiens, MCF7, 48 h, cell viability, 48 h; read-out: IC50 (MCF7)
pIC50: −log10 of the molar value.
VALUE_TYPE: pIC50

Find the recorded pIC50 belonging to CCCN(CCC)P(N)(=O)OCC1=CC(=O)c2ccccc2C1=O (stereo not shown) and report it.
~5.30

====

- TEST_SYSTEM: PKM2 (Homo sapiens, UniProt P14618)
- Sequence (P14618 whole entry): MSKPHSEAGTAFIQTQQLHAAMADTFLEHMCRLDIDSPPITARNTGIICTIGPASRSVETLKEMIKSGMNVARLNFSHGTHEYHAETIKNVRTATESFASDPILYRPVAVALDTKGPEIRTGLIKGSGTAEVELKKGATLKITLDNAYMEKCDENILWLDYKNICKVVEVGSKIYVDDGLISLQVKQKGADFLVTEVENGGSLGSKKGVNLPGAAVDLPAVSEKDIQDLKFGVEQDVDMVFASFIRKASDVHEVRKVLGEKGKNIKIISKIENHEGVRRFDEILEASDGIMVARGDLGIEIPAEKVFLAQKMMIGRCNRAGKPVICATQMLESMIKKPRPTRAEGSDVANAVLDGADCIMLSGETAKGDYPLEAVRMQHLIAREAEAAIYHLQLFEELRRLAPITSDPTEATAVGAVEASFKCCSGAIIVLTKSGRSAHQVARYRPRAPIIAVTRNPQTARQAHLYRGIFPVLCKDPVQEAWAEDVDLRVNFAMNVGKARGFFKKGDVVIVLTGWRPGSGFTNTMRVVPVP
- ASSAY_COMMENT: fluorescent pyruvate kinase-lactate dehydrogenase (PK-LDH) coupled assay, PKM2
- Assay type: biochemical
- Design: His-tag (N); made in house; host or cells: Escherichia coli BL21
VALUE_TYPE: IC50 (nM)
Number only, in nM; omit the unit.

Missing value: IC50, PKM2 (Homo sapiens, UniProt P14618), entry CC1=C(COP(N)(=O)N(CCCl)CCCl)C(=O)c2ccccc2C1=O (stereo not shown) [NP-1] . Fill in?
2930

====

- TEST_SYSTEM: PKL (Homo sapiens, UniProt P30613)
- Construct: purchased Sino Biological Inc
- Sequence (P30613 1-543 isoform P30613-2, species assumed): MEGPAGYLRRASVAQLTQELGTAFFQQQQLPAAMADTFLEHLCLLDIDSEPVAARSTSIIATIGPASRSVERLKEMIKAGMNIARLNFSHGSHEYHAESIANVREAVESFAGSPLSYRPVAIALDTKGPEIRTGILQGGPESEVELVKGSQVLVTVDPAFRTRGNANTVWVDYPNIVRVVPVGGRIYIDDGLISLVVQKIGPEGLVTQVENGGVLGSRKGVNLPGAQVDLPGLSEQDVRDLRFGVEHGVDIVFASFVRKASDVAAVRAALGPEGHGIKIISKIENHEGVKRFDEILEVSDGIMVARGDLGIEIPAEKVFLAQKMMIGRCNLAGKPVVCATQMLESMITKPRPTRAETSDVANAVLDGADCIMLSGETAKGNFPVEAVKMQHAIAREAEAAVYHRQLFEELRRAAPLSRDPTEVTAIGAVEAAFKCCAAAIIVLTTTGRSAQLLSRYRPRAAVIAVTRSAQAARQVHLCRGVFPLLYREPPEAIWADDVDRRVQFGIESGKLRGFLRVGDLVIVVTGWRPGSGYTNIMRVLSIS
- ASSAY_COMMENT: fluorescent PK-LDH coupled assay, PKL
- Type: biochemical
VALUE_TYPE: IC50 (µM)
Report the value in µM with no unit label.

Return reported IC50; argument: CC1=C(COP(N)(=O)N(CCCl)CCCl)C(=O)c2ccccc2C1=O (stereo not shown)
69.6

====

- System: H1299 cells
- ASSAY_COMMENT: cell viability test, H1299
- Format: cell-based
- CONDITION_DESCRIPTION: cell viability, 48 h; read-out: IC50 (H1299)
VALUE_TYPE: IC50 (µM)
Give a bare numeral; the unit µM is implied.

# input compound: CCCN(CCC)P(N)(=O)OCC1=CC(=O)c2ccccc2C1=O (stereo not shown) [Compound 8] ; wanted: its IC50
4.75

====

- TEST_SYSTEM: PKL (Homo sapiens)
- Construct: purchased Sino Biological Inc
- ASSAY_COMMENT: fluorescent PK-LDH coupled assay, PKL
- Format: biochemical
- CONDITION_DESCRIPTION: PK-LDH coupled assay; read-out: IC50 (PKL)
# key: entry, value: pIC50
pIC50 is a log-scale quantity: -log10 of the concentration expressed in molar.

# MOLECULE, TEST_SYSTEM, NUMBER
records = [
    ("CCCN(CCC)P(N)(=O)OCC1=CC(=O)c2ccccc2C1=O (centres unmarked) [Compound 8]", "PKL (Homo sapiens)", 4.69),
]

// switching to the query molecule
Which pIC50 reading was recorded for the molecule CC(C)=CC[C@@H](O)C1=CC(=O)c2c(O)ccc(O)c2C1=O [Shikonin, reference compound] ?
4.41
